Below is a list of entries, each paired with its recorded inhibition at 10 µM value.
assay: Antiinflammatory activity in FMLP/CB activated human neutrophils assessed as inhibition of superoxide generation at 10 uM by ferricytochrome c reduction based spectrophotometry; format: functional; details: Neutrophil
# output: bare number, implied unit %

>>> value_reported("C=C1C(=O)[C@@]23[C@H](O)C[C@@H]4[C@@](C)(COC(C)=O)CCC[C@@]4(C)[C@@H]2CC[C@@H]1[C@H]3O")
19

[ask] Which measured inhibition at 10 µM value corresponds to CC(=O)OC[C@@]1(C)CCC[C@]2(C)[C@@H]1C[C@H](O)[C@@]13C[C@@H](CC[C@@H]21)[C@H](C)C3=O ?
[reply] 40.4

[ask] Same question, C=C1C[C@]23C(=O)C[C@H]4C(C)(C)CCC[C@]4(C)[C@H]2CC[C@H]1[C@@H]3O this time
[reply] 1.65

[ask] Same question, CC(=O)OC[C@@]1(C)CCC[C@]2(C)[C@@H]1CC[C@@]13C[C@@H](C[C@H](O)[C@H]12)C(C)(O)C3 (stereo partly specified) this time
[reply] -10.9

[ask] Same question, C=C1C(=O)[C@@]23CC[C@@H]4C(C)(C)CCC[C@@]4(C)[C@@H]2CC[C@H]1[C@H]3O this time
[reply] 33.6

[ask] Same question, C=C1C(=O)[C@@]23CC[C@@H]4[C@@](C)(CO)CCC[C@@]4(C)[C@@H]2CC[C@@H]1C3 this time
[reply] 29.9
